Value source: ChEMBL document CHEMBL1201862

- Tested on: A549
- protocol-summary: NCI tumour cell line growth inhibition, 48 h
Activity calls are given as the source filed them. Cut-off read from the data, not from the text of the source: active = GI50 up to about 1.1 µM and inactive = higher.
Returns: one label drawn from active, inactive

CC[C@]1(O)CC(OC2CC(N(C)C)C(O)C(C)O2)c2c(cc3c(c2O)C(=O)c2c(O)cccc2C3=O)[C@@H]1C(=O)OC (stereo not given in full); active
COc1cc(C(=O)/C=C/c2ccc(OCC#N)cc2)cc(OC)c1OC; inactive
COc1cc2c(cc1O)NC(=O)[C@@H]1CCCN1C2=O; inactive

Q) Call for entry `CCOC(=O)/C(=N\Nc1ccc(-n2c(C)nc3ccccc3c2=O)cc1)C(C)=O` :
A) inactive

Q) Also check `CC1(C)OC(=O)CC12CCN(Cc1ccccc1)CC2`
A) inactive

Q) Can you handle `COc1cccc(CCNC(=O)Cc2ccccc2CCO)c1` next?
A) inactive

Q) Follow-up entry: CC(C)(C)N/N=C(\C(=O)NC1=C(Cl)C(=O)c2ccccc2C1=O)C1C=CCS1(=O)=O (stereo not given)
A) inactive

Q) Same again, this time with `CN(C)CCCc1cccc2[nH]c3c(c12)CN(C)CC3`
A) inactive

Q) Moving on to the next compound: CC(=O)NC(Cc1ccc(O)cc1)C(=O)O (stereo not given)
A) inactive

Q) Please answer likewise for `Cc1cc(OCc2nnc3n2S(=O)(=O)c2ccccc2N3C)ccc1Cl`
A) inactive

###

Parameter: GI50. Scope: all listed entries.
- Tested on: SNB-19
- protocol-summary: NCI tumour cell line growth inhibition, 48 h
Active and inactive are the calls of the source. No stated cut-off is given here; in the data, active = GI50 up to about 1.1 µM and inactive = higher.

Known results for compounds:
NC1CC(=O)c2c(I)sc(I)c21 (stereo unspecified); 23.8 µM (inactive)
N#Cc1c(NC(=S)Nc2ccccc2)sc2c1CCCC2; > 100 µM (inactive)
O=C1C(Cl)=C(NCCN2CCOCC2)C(=O)c2ncccc21; 1.69 µM (inactive)
COC(=O)C(Cc1ccc2c(c1)OCO2)(NC(=O)c1ccccc1)P(=O)(OC)OC (stereo unspecified); > 100 µM (inactive)
Nc1nncc2c1c(Br)cn2C1OC(CO)C(O)C1O (stereo unspecified); 64.3 µM (inactive)

Switching to the query record.
Q) Report GI50 for `CCCC(CCN)(CCN)[N+](=O)[O-]` please.
A) > 100 µM (inactive)

###

- Tested on: NCI/ADR-RES
- protocol-summary: NCI tumour cell line growth inhibition, 48 h
Activity calls are given as the source filed them. No stated cut-off is given here; in the data, active = GI50 up to about 1.1 µM and inactive = higher.
attribute-measured: GI50

O=c1cc(-c2ccc(O)cc2)oc2cc(O[C@@H]3O[C@H](CO)[C@@H](O)[C@H](O)[C@H]3O)cc(O)c12; 42 µM (inactive)
Clc1ccc(/C=N/c2ccc3c(c2)Cc2ccccc2-3)c(Cl)c1; > 100 µM (inactive)
CCc1ccc2nccc(NCCCN(C)C)c2c1[N+](=O)[O-]; > 100 µM (inactive)
C1=N\CCN2CCN(CC/N=C\c3ccccc3OCc3cccc(n3)COc3ccccc3/1)CC2; 2.28 µM (inactive)

Q) // returns reported GI50 for input `c1ccc2c[n+](Cc3ccnc4ccccc34)ccc2c1`
A) > 100 µM (inactive)

###

- System: DLD-1
- protocol-summary: NCI tumour cell line growth inhibition, 48 h
The source made the active and inactive calls. Cut-off read from the data, not from the text of the source: active = GI50 up to about 1.1 µM and inactive = higher.
Use one of these outcomes when replying: label 1 (active), label 0 (inactive)

Example cases with answers are listed next.
COc1cc2cccc(/N=C\c3ccccc3Cl)c2cc1OC; label 0
CN(C)c1n/c(=N/c2ccc3ccccc3c2)ss1; label 0
COC(=O)C1=C(O)c2cc(-c3ccccc3)c(-c3ccccc3)c(C#N)c2NC(=O)C1; label 0
CCCc1n[nH]c(CCC(=O)N(Cc2ccccc2)Cc2ccccc2)c1CC; label 0
O=CN1CCN(C=S)CC1; label 0
CN(C)CCC(/C=C/c1ccccc1)=N\Nc1ccc(Cl)c(Cl)c1; label 0

Q) Please share the test call associated with `Cc1ccc([N+](=O)[O-])cc1NC(=O)/C(CC(=O)c1sc(C(N)=S)nc1C)=N\N` .
A) label 0

Q) Can you check `COc1ccc(C(c2ccccc2C(=O)O)c2ccc(OC)c3ccccc23)c2ccccc12` next?
A) label 0

Q) Next entry: Cc1occ2c1C(=O)CC1C2[C@@H](O)CC2C(C)(C)CCC[C@]12C (some centres not stated)
A) label 0

###

- Test system: HCT-15
- protocol-summary: NCI tumour cell line growth inhibition, 48 h
*1 amine or outer side, *2 acyl side, *3 side chain or, on linkers, in order; H or OH if unused. Where a SMILES comes first, the peptide text is derived from it. [ ]: non-standard residue; d: D form. The star is where a group is joined. ξ: configuration not given here. X53 = CC(C)C[C@H](N[*:1])C1=N[C@H](C(=O)[*:2])CS1; Ile(3ξ) = CCC(C)[C@H](N)C(=O)O; Allyl(1,1-Me2) = C=CC(C)(C)*
Entries and their GI50
Please reply with the bare figure in µM and do not write the unit itself.

Solved cases (3 shown):
C=CC(C)(C)OC[C@@H]1NC(=O)CNC(=O)[C@@H]2CCCN2C(=O)[C@H](C(C)CC)NC(=O)[C@@H]2CSC(=N2)[C@H](CC(C)C)NC1=O (stereo partly specified) (cyclo(GS(Allyl(1,1-Me2))[X53][Ile(3ξ)]P)); 58.1
Clc1ccc(/C=N/c2ccc3c(c2)Cc2ccccc2-3)c(Cl)c1; 40.6
CN(C)CCCc1cccc2[nH]c3c(c12)CN(C)CC3; 80

Q) # query: GI50 of entry `COc1cc2c(/C=C3/C(=O)Nc4ccccc43)c(Cl)n(Cc3ccc(Cl)cc3)c2cc1C`
A) 0.242

Q) Follow-up entry: `COc1c(Sc2c(SCSc3cnc4ccccc4c3Sc3cnc4ccccc4c3OC)cnc3ccccc23)cnc2ccccc12`
A) 84.5

Q) Can you handle `O=C1c2ccccc2-c2nnc3c(c21)-c1ccccc1C3` next?
A) 39.4

Q) Now give it for `COc1ccc(/C=C/c2cc(OC)c(OC(C)=O)c(OC)c2)cc1` too.
A) 26.2

Q) Here is the next molecule: `c1ccc2c(Cc3[nH]c4ccccc4c3Cc3c[nH]c4ccccc34)c[nH]c2c1`
A) 2.76

Q) And the next one, `CSc1nc(C)cc(N(C)c2ccccc2)n1` ?
A) 38.4

###

- System: RXF 393
- protocol-summary: NCI tumour cell line growth inhibition, 48 h
Activity calls are given as the source filed them. Cut-off read from the data, not from the text of the source: active = GI50 up to about 1.1 µM and inactive = higher. Where a SMILES comes first, the peptide text is derived from it. The star is where a group is joined. Cbz = O=C(OCc1ccccc1)*; OBn = c1ccc(CO*)cc1
Response enum: T (active), F (inactive)

Past entries and their recorded results:
CCN(CC)c1cccc2c1C1(O)CCC3(CC21)OCCCCO3 (stereo not drawn); F
O=S(=O)(N/N=C/c1ccc(Cl)cc1Cl)c1ccccc1; F
Fc1ccc(C2SCc3nc4ccccc4n32)cc1Cl (stereo not drawn); F
S=C(N1CCN(c2cccc(Cl)c2)CC1)N1CCN(c2cccc(Cl)c2)CC1; F
CC1(C)N=c2c(ncn2CCCO)=C(C(N)=O)N1; F

Q) Hi, do you know how COC(=O)C(Cc1ccc(O)cc1)NC(=O)C(CC(=O)OCc1ccccc1)NC(=O)OCc1ccccc1 (stereo not drawn) (Cbz-Asp(OBn)-Tyr-OMe; configuration not given here) came out in this test?
A) F

Q) Repeat with `COc1cc2cccc(/N=C\c3ccccc3Cl)c2cc1OC`
A) F

Q) Next molecule: `Clc1ccccc1-c1nn2c(CCCCCCCCc3nnc4sc(-c5ccccc5Cl)nn34)nnc2s1`
A) F

Q) How about `COc1ccc(Cn2c3c(cc(OC(C)=O)c2=O)Cc2ccccc2-3)cc1` ?
A) F

Q) // repeat for `Clc1nc(-[n+]2ccc(-c3ccncc3)cc2)nc(Nc2ccccc2)c1Cl` and report
A) F

###

Overview of reported GI50 across a group of molecules:
- System: KM12
- protocol-summary: NCI tumour cell line growth inhibition, 48 h
Active and inactive are the calls of the source. No stated cut-off is given here; in the data, active = GI50 up to about 1.1 µM and inactive = higher.

Field: example entries. Status: answers known.
CCOC(=O)C12CCCC1(O)N(NC(=O)OC(C)(C)C)C(C)=C2C(=O)OC (configuration not stated); > 100 µM (inactive)
Cc1c(Cl)cccc1NC(=O)/C(Cl)=C(\Cl)C(=O)O; 17.3 µM (inactive)
O=C(O)Cc1ccc([N+](=O)[O-])cc1[N+](=O)[O-]; > 100 µM (inactive)
N=c1sc2ccccc2n1CC[S-].c1ccc2c(c1)sc1[n+]2CCS1; 17.5 µM (inactive)
COC(=O)[C@@H]1C(=O)O[C@@H](c2cc(OC)c(OC)cc2OC)[C@@H]1C(=O)OC.COC(=O)[C@H]1C(=O)O[C@@H](c2cc(OC)c(OC)cc2OC)[C@@H]1C(=O)OC; > 100 µM (inactive)

Q) Give its GI50 value. Item: `CCOC(=O)c1c(N)nn2c1cc1cccccc12`
A) 20.8 µM (inactive)

Q) How about CNC(=O)C1(C#N)C(c2ccccc2)C(C#N)(C(=O)NC)C1c1ccccc1 (configuration not stated) ?
A) > 100 µM (inactive)

Q) Then this molecule: COc1cc(/C=C2/SC(c3ccccc3)N(c3ccccc3Cl)C2=O)cc(OC)c1OC (configuration not stated)
A) 26.8 µM (inactive)

Q) Do the same for `c1ccc2c(Cc3[nH]c4ccccc4c3Cc3c[nH]c4ccccc34)c[nH]c2c1` please
A) 2.09 µM (inactive)
